B1: ACSBG2 (parent)
chain: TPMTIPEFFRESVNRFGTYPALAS

Variants of: B1
Assay: protein stability index of a GFP-peptide fusion (GPS, HEK-293T) (PSI 1-6); higher = more stable;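 note: lentivirally expressed fusions sorted by FACS into six bins by GFP to DsRed ratio, PSI derived from sequencing read proportions per bin multiplied by bin number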
Conditions: c terminus: a fixed tail appended
measured parameter: protein stability index
Respond with the number and no other words.

Answered examples (5):
F16T
2.87
V13K
2.31
I5C
2.58
M3S
2.8
A21F
1.65

QUERY: Record request: protein stability index value, item `T4C`
RESULT: 2.36

QUERY: For `S12D` then?
RESULT: 2.96

QUERY: For `R15I` then?
RESULT: 2.24

QUERY: For `M3N` then?
RESULT: 2.62

QUERY: For `S12Q` then?
RESULT: 2.65

QUERY: For `V13Y` then?
RESULT: 2.64
